target: T1, human αvβ3-integrin (human, UniProt P06756 31-992; P05106 27-718); assay: solid-phase competition assay: soluble human αvβ3 on coated vitronectin
T1 construct: Soluble integrin bought from R&D; also called integrin subtype αvβ3; αvβ3 receptor
T1 sequence (P06756 31-992 limits assumed, chain 1 of 2): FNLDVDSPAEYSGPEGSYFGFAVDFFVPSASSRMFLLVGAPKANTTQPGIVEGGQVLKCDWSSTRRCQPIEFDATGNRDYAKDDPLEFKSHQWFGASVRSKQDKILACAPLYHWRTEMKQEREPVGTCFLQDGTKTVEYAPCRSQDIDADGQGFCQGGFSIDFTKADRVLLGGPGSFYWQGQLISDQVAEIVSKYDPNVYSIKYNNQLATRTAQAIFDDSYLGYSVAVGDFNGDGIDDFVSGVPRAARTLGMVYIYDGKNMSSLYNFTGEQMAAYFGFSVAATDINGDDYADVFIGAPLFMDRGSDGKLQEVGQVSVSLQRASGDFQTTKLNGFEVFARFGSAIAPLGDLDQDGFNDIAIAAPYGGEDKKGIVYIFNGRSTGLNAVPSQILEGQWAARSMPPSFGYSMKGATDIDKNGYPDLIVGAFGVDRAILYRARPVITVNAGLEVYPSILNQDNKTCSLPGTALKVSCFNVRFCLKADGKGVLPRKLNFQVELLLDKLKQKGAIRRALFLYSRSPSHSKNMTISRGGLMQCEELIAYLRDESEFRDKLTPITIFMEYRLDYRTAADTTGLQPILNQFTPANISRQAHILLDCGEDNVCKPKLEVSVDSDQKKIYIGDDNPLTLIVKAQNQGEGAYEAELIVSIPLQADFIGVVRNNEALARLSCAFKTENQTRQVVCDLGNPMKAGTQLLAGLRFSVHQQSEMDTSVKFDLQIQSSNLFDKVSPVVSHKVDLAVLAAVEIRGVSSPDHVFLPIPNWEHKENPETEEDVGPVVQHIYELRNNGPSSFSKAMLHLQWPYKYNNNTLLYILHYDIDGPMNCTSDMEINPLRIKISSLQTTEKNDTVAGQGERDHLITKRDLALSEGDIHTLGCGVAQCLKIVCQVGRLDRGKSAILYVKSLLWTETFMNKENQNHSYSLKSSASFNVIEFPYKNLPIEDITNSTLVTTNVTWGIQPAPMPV
T1 sequence (P05106 27-718 limits assumed, chain 2 of 2): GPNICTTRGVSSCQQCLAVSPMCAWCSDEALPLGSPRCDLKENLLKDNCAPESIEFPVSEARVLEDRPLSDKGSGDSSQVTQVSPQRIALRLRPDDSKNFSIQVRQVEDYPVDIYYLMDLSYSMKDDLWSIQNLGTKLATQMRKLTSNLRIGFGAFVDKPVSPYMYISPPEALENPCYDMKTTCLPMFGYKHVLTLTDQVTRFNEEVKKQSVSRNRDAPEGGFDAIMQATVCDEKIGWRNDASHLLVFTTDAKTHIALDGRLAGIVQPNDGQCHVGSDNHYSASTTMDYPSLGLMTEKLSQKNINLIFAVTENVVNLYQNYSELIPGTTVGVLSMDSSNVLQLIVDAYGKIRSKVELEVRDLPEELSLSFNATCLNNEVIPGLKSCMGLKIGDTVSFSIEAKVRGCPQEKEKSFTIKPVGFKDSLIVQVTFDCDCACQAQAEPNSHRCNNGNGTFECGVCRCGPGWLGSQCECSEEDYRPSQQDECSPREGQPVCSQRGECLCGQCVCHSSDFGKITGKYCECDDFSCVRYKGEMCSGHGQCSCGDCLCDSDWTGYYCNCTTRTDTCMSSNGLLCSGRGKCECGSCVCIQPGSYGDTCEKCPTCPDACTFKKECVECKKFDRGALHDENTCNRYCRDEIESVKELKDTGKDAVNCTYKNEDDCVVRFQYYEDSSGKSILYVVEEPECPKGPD
[ ]: non-standard residue; d: D form. dNMeR = CN[C@H](CCCNC(=N)N)C(=O)O; NMeD = CN[C@@H](CC(=O)O)C(=O)O; NMeA = CN[C@@H](C)C(=O)O; dNMeA = CN[C@H](C)C(=O)O
Catalogue of log10 of IC50 values
A difference of one corresponds to tenfold IC50; all values are log10 with IC50 in nM.

Use the examples below as a reference point.
cyclo([dR]GDA[NMeA][NMeA]) (NMe(5,6) scaffold cyclic hexapeptide) [peptide 23, c(rGDA*A*A)]    1.86
cyclo([dNMeA]RGDA[NMeA]) (NMe(1,6) scaffold cyclic hexapeptide; also called the drug) [peptide 12, c(*aRGDA*A)]    0.68
cyclo([dNMeR]GDA[NMeA]A) (NMe(1,5) scaffold cyclic hexapeptide) [peptide 5, c(*rGDA*AA)]    1.11
cyclo([dR]G[NMeD]A[NMeA]A) (NMe(3,5) scaffold cyclic hexapeptide) [peptide 17, c(rG*DA*AA)]    3.37
cyclo([dNMeR]GDA[NMeA]V) (NMe(1,5) scaffold cyclic hexapeptide) [peptide 32, c(*rGDA*AV)]    0.75

Please find the next binder below.
Short answer for cyclo([dNMeR]GDA[NMeA]F) (NMe(1,5) scaffold cyclic hexapeptide) [peptide 33, c(*rGDA*AF)] : log10 of IC50 was 0.64
